- measurement.description: in vitro
- recorded.conditions: dog
property.name: CC50

NC12CC3CC(CC(C3)C1)C2 [Compound 1, amantadine, reference compound]    > 300 µM

Okay, now this compound:
Problem: Give the measured CC50 of Brc1ccc(CNC23CC4CC(CC(C4)C2)C3)s1 [Compound 11] .
Result: 123 µM

Where these numbers come from: paper PMC4286326
